The reported numbers originate from patent US20260062422A1.

Collected GI50 values appear next to each entry.
System: T-Rex 293 cell line SC3 cells lacking increased expression of androgen receptor protein
Assay: Cellular growth inhibition, T-Rex 293 SC3 cells without doxycycline, CellTiter-Glo
Type: cell-based
Conditions: 72 h, T-Rex 293 SC3 cells not exposed to doxycycline, CellTiter-Glo 2.0

Use these answered entries as a reference point.
Cc1sc2c(c1C)C(c1ccc(N3CCCC(CN(C)c4ncc(C(=O)N[C@H]5C(C)(C)[C@H](Oc6ccc(C#N)c(Cl)c6)C5(C)C)cn4)C3)cc1)=N[C@@H](Cc1ncco1)c1nnc(C)n1-2 (stereo partly shown) [Compound I-650]
> 3000 nM
CCNC(=O)C[C@@H]1N=C(c2ccc(N3CCC(CN4CCN(c5ncc(C(=O)N[C@H]6C(C)(C)[C@H](Oc7ccc(C#N)c(Cl)c7)C6(C)C)cn5)CC4)CC3)cc2)c2c(sc(C)c2C)-n2c(C)nnc21 [Compound I-109]
500 to 1500 nM
Cc1sc2c(c1C)C(c1ccc(N3CCC4(CC3)CCN(c3ncc(C(=O)N[C@H]5C(C)(C)[C@H](Oc6ccc(C#N)c(Cl)c6)C5(C)C)cn3)C4)cc1)=NC(Cc1ncco1)c1nnc(C)n1-2 (stereo partly shown) [Compound I-643]
< 500 nM

# context switch: different compound, same GI50
**Query** Would you kindly share the measured GI50 for Cc1sc2c(c1C)C(c1ccc([C@@H]3CCCCN3C(=O)[C@H]3CCCN(c4ncc(C(=O)N[C@H]5C(C)(C)[C@@H](Oc6ccc(C#N)c(Cl)c6)C5(C)C)cn4)C3)cc1)=N[C@@H](Cc1ncco1)c1nnc(C)n1-2 [Compound I-360] ?
**Result** > 3000 nM

====

Collected GI50 values appear next to each entry.
Test system: T-Rex 293 cell line SC3 cells lacking increased expression of androgen receptor protein
Test: Cellular growth inhibition, T-Rex 293 SC3 cells without doxycycline, CellTiter-Glo
Format: cell-based
Conditions: 72 h, T-Rex 293 SC3 cells not exposed to doxycycline, CellTiter-Glo 2.0

**Query** Would you kindly share the measured GI50 for `Cc1sc2c(c1C)C(c1ccc(O[C@@H]3CO[C@]4(CCCN(c5ncc(C(=O)N[C@H]6C(C)(C)[C@H](Oc7ccc(C#N)c(Cl)c7)C6(C)C)cn5)C4)C3)cc1)=N[C@@H](Cc1ncco1)c1nnc(C)n1-2` ?
**Result** < 500 nM

**Query** Would you kindly share the measured GI50 for `Cc1sc2c(c1C)C(c1ccc(C(C)(C)N3CC4(CCCN(c5ncc(C(=O)N[C@H]6C(C)(C)[C@H](Oc7ccc(C#N)c(Cl)c7)C6(C)C)cn5)C4)C3)cc1)=N[C@@H](Cc1ncco1)c1nnc(C)n1-2` ?
**Result** > 3000 nM

**Query** Would you kindly share the measured GI50 for `Cc1sc2c(c1C)C(c1ccc(O[C@H]3C[C@@H](N(C(C)C)C4CCN(c5ncc(C(=O)N[C@H]6C(C)(C)[C@H](Oc7ccc(C#N)c(Cl)c7)C6(C)C)cn5)CC4)C3)cc1)=N[C@@H](Cc1ncco1)c1nnc(C)n1-2` ?
**Result** 500 to 1500 nM

**Query** Would you kindly share the measured GI50 for `Cc1sc2c(c1C)C(c1ccc(COC3CC4(CCCN(c5ncc(C(=O)N[C@H]6C(C)(C)[C@H](Oc7ccc(C#N)c(Cl)c7)C6(C)C)cn5)C4)C3)cc1)=N[C@@H](C)c1nnc(C)n1-2` ?
**Result** > 3000 nM

**Query** Would you kindly share the measured GI50 for `Cc1sc2c(c1C)C(c1ccc(Cl)cc1)=N[C@@H](CC(=O)NCCCOCCCCOC1CCN(c3ncc(C(=O)N[C@H]4C(C)(C)[C@H](Oc5ccc(C#N)c(Cl)c5)C4(C)C)cn3)CC1)c1nnc(C)n1-2` ?
**Result** < 500 nM
